- tested-system: Ubiquitin-activating enzyme e1, putative (Leishmania donovani (strain BPK282A1)) (UniProt E9BSI1)
- Sequence (whole entry): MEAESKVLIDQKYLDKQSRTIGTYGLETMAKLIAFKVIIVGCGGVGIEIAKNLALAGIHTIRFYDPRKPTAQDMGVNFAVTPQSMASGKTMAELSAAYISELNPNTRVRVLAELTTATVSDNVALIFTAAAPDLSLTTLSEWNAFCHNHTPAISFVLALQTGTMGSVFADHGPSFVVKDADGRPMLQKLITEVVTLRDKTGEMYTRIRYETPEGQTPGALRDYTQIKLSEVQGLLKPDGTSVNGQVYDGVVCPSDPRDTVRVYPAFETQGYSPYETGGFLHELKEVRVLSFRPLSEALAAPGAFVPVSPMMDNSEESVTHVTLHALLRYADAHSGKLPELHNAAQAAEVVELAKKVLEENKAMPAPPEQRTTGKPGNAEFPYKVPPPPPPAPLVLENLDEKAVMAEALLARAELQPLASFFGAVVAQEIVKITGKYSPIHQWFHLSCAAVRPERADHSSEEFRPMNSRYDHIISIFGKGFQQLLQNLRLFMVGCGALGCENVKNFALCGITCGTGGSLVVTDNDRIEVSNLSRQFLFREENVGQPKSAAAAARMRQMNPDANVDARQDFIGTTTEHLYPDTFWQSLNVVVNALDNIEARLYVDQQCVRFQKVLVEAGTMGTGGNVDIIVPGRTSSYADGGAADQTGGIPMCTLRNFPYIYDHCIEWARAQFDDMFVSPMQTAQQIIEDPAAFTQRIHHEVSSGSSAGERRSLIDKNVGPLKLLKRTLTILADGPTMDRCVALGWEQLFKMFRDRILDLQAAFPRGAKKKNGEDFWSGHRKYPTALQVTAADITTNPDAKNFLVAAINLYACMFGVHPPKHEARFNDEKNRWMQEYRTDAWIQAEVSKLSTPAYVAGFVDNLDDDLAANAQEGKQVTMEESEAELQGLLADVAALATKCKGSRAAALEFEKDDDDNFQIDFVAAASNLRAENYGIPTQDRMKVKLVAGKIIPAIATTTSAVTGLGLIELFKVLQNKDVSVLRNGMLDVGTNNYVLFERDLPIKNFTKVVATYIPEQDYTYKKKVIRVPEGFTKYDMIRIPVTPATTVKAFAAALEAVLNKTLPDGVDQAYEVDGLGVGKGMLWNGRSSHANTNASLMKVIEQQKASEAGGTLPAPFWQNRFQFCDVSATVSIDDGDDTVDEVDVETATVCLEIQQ
- experiment: Leishmania donovani Ubiquitin Activating Enzyme (LdE1)
- Format: functional
- Parameters: scale not given: direction of the effect not stated beside the values
- setup-conditions: 30 µM
Results with a measured potency or affinity are listed apart.
quantity-name: Percent Effect (%)
One number for each entry, in %.

molecule | unit-symbol | Percent Effect
O=C(Nc1cccnc1)[C@@H]1C[C@H]2OCC[C@H]2N(Cc2ccsc2)C1 | % | 9.09
CO[C@@H]1CN(Cc2scnc2C)[C@@H]2CCCO[C@@H]21 | % | 2.7
CC(Cn1cccn1)NCc1nc(-c2cccs2)no1 (centres undefined) | % | 5.26
O=C(C1CCOC1)N1C[C@H]2CN(Cc3ccccn3)C[C@H]2C1 (some centres undefined) | % | 13.5
COC[C@@H]1CCC[C@]12CN(Cc1cccc(C)n1)CCO2 | % | 4

Please go through the list and note Percent Effect for each molecule.
1. Cc1nc(CN2C[C@@H]3OCCN(c4ncc(F)cn4)[C@@H]3C2)cs1
2. CCc1ccc(CN2CCN(C)c3ncccc3C2)o1
3. C[C@@H]1CN(Cc2ccsc2)C[C@]12CCN(Cc1cccnc1)C2=O
4. Cc1cccc(CN2CC[C@H]3[C@H]2CCN3Cc2cnn(C)c2)n1
5. O=C1CC[C@@H]2[C@@H](CCN2Cc2ccncc2)N1c1ccccc1

Response given:
5.33
1.3
1.3
3.9
-8

Please go through the list and note Percent Effect for each molecule.
1. c1ccc(OC[C@@H]2CCC[C@@]23CNCCO3)nc1
2. O=C(Cc1ccc(-n2cccn2)cc1)N1CCN2CCCCC2C1 (centres undefined)
3. Cc1noc(C)c1CN1CCCC2(CCN(C(=O)NC3CC3)C2)C1 (centres undefined)
4. COc1cc(CNCC(O)c2ccc(C)cc2)cc2c1OCCO2 (centres undefined)
5. Cc1ncsc1CN1CC[C@H]2C[C@H](c3ccncn3)O[C@@H]2C1
6. CCN(CC)C(=O)c1ccc(NC(=O)CNc2ccc(Br)cc2F)cc1

Response given:
[5.41, -10.7, 22.1, 24.3, 10.4, 10.5]
